TARGET_OF_ASSAY: Anti-estrogen binding site (AEBS) (Homo sapiens, UniProt Q15125+Q9UBM7)
Sequence (Q15125 whole entry): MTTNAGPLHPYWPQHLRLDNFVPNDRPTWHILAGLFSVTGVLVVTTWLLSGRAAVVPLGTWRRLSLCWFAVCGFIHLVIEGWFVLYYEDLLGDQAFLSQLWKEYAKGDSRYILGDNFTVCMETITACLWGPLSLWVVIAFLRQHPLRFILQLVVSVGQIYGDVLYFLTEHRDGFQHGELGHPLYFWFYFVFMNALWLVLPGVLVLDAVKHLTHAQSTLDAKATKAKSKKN
Sequence (Q9UBM7 whole entry): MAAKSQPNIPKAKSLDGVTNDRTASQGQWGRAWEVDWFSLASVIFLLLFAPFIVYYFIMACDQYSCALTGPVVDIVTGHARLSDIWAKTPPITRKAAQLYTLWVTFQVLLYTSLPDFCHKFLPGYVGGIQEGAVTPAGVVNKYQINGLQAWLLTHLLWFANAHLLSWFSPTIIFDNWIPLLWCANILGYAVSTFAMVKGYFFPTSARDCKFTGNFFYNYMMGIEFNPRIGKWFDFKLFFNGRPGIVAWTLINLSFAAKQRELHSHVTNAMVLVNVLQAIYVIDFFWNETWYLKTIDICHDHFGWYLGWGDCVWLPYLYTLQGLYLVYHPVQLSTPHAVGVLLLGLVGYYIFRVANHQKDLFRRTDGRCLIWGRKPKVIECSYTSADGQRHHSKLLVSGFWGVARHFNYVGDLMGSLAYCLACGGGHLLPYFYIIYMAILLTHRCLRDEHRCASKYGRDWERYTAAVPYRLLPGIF
TEST_DESCRIPTION: Displacement of [3H]tamoxifen from antiestrogen binding site (AEBS)
REPORTED_METRIC: IC50 (µM)
Quick note: give the figure in µM, leave out the unit.

CCN(CC)CCOc1ccc(/C(=C(/Cl)c2ccccc2)c2ccc(O)c(OC)c2)cc1 [3'-METHOXY-4'HYDROXYCLOMIPHENE] | 0.022

Input line: I'd like to know its IC50. The compound in question is `CCN(CC)CCOc1ccc(/C(=C(/Cl)c2ccc(O)c(OC)c2)c2ccccc2)cc1`
Output line: 0.032
